Where do these numbers come from? They come from ChEMBL document CHEMBL5154781.

test: Cytotoxicity against HUVEC cells; conditions: human
pIC50: −log10 of the molar value.
Readout kind: pIC50

>>> measured("Cl.Clc1ccc(C2CCC(NCCC3CCOCC3)c3ccsc32)cc1Cl (stereo unspecified)")
4.70
